- target.entity: T1, Peptide 4: Biotin-AGGGGSGGGGSGGGGSAAA-Tyr-acid (N-terminal biotin; C-terminal acid)
- T1 construct: Control peptide without PC
- T1 peptide: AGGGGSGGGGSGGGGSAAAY
- assay.overview: scFv ELISA
Measured OD450, listed per entry for reference.
quantity.name: OD450 (OD450)

1) PcOxP_DB04_G01 (scFv, V domains shown, scFv in periplasmic extract) VH: EVQLLESGGGLVQPGGSLRLSCAASGFTFSDYYMEWVRQAPGKGLEWVAASRNKWNDYTTEYADSVKGRFTISRDNSKNTLYLQMNSLRAEDTAVYYCARDYYLSSYWYFDVWGQGTLVTVSS VL: DIVMTQSPDSLAVSLGERATINCKASQSVLSSKNNVNYLAWYQQKPGQPPKLLIYGASNRYIGVPDRFSGSGSGTDFTLTISSLQAEDVAVYYCAQFYQYPLTFGGGTKVEIK | 0.07
2) PcOxP_DB03_A10 (scFv, V domains shown, scFv in periplasmic extract) VH: EVQLLESGGGLVQPGGSLRLSCAASGWTFSDFYMEWVRQAPGKGLEWVAASRNKANDYTTEYADSVKGRFTISRDNSKNTLYLQMNSLRAEDTAVYYCARDYYGSSYWYFDVWGQGTLVTVSS VL: DIVMTQSPDSLAVSLGERATINCTASESLYSSKHKVHYLAWYQQKPGQPPKLLIYGASQRYIGVPDRFSGSGSGTDFTLTISSLQAEDVAVYYCAQFYLYPLTFGGGTKVEIK | 0.04
3) PcOxP_DB04_B12 (scFv, V domains shown, scFv in periplasmic extract) VH: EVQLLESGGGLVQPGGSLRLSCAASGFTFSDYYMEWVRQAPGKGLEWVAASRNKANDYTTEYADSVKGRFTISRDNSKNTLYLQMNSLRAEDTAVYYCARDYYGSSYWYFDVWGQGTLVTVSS VL: DIVMTQSPDSLAVSLGERATINCTASESLYSSKHKVHYLAWYQQKPGQPPKLLIYGASNRYIGVPDRFSGSGSGTDFTLTISSLQAEDVAVYYCAAFYSYPLTFGGGTKVEIK | 0.04
4) PcOxP_DB04_D09 (scFv, V domains shown, scFv in periplasmic extract) VH: EVQLLESGGGLVQPGGSLRLSCAASGFTDSDFYMEWVRQAPGKGLEWVAASRNKANDYTTEYADSVKGRFTISRDNSKNTLYLQMNSLRAEDTAVYYCARDYYGSSYWYFDVWGQGTLVTVSS VL: DIVMTQSPDSLAVSLGERATINCKSSESLYSSKNKVHYLAWYQQKPGQPPKLLIYGASNRYSGVPDRFSGSGSGTDFTLTISSLQAEDVAVYYCAQFYSYPLTFGGGTKVEIK | 0.05
5) PcOxP_DB03_A05 (scFv, V domains shown, scFv in periplasmic extract) VH: EVQLLESGGGLVQPGGSLRLSCAASGFTFSEFYMEWVRQAPGKGLEWVAASRNKANDYTTEYADSVKGRFTISRDNSKNTLYLQMNSLRAEDTAVYYCARDYYGSSYWYFDVWGQGTLVTVSS VL: DIVMTQSPDSLAVSLGERATINCTASESLYSSKHKVHYLAWYQQKPGQPPKLLIYGASNRAIGVPDRFSGSGSGTDFTLTISSLQAEDVAVYYCAQFYFYPLTFGGGTKVEIK | 0.04
